Header: pKi / Protein kinase C alpha type (Homo sapiens, UniProt P17252) / multiple publications
pKi: −log10 of the molar value.

Consider the worked cases shown below.
compound	pKi
Fc1ccc(CNc2ncc3nc(-c4c(Cl)cccc4Cl)n(CC4CCNC4)c3n2)cc1 (stereo not shown)	< 6.00
Fc1cnc2[nH]nc(-c3nc(N4CCNCC4)ccc3C(F)(F)F)c2c1	< 5.90
CCC(C)(O)C1CN(c2ccc(F)c(-c3n[nH]c4ncccc34)n2)CCN1 (stereo not shown)	< 5.90

The following compounds each have a reported value; give each one's pKi.
1. NC[C@@H]1CCN(c2ccc(F)c(-c3n[nH]c4ncccc34)n2)C1
2. C=C(F)c1ccc(N2CCNC(c3cccc(Cl)c3)C2)nc1C(=O)c1cccnc1N (stereo not shown)

## Output
< 5.90
> 7.30

The following compounds each have a reported value; give each one's pKi.
1. Fc1cccc(Cl)c1-c1nc2cnc(NCc3cccs3)nc2n1C[C@@H]1CCCNC1
2. Fc1cccc(CNc2ncc3nc(-c4c(Cl)cccc4Cl)n(C[C@@H]4CCCNC4)c3n2)c1

## Output
["< 5.00", "< 6.00"]

----------
pKi: −log10 of the molar value.
Header: pKi / Protein kinase C alpha type (Homo sapiens) / multiple publications

Consider the worked cases shown below.
compound	recorded-measurement
Fc1ccc(CNc2ncc3nc(-c4c(Cl)cccc4Cl)n(CC4CCNC4)c3n2)cc1Cl (stereo not drawn)	< 6.00
CC(C)C[C@@H]1CN(c2ccc(C(F)(F)F)c(-c3n[nH]c4ncccc34)n2)CC[C@@H]1N	> 5.55
NCC1CN(c2ccc(C(F)(F)F)c(-c3n[nH]c4ncccc34)n2)CCO1 (stereo not drawn)	< 5.90

The following compounds each have a reported value; give each one's pKi.
1. CC(F)(F)c1ccc(N2CCNC(c3ccccc3)C2)nc1C(=O)c1cccnc1N (stereo not drawn)
2. NCCCNc1ccc2[nH]c(=O)n(Cc3ccccc3Cl)c2n1
3. NCC1CN(c2ccc(C(F)(F)F)c(-c3n[nH]c4ncccc34)n2)C1

## Output
["5.55 to 6.30", "< 5.00", "< 5.90"]
